Target: cysless WT Pgp (Homo sapiens, UniProt P08183, C1074A/C1125A/C1227A/C137A/C431A/C717A/C956A)
Sequence (P08183 whole entry C137A/C431A/C717A/C956A/C1074A/C1125A/C1227A): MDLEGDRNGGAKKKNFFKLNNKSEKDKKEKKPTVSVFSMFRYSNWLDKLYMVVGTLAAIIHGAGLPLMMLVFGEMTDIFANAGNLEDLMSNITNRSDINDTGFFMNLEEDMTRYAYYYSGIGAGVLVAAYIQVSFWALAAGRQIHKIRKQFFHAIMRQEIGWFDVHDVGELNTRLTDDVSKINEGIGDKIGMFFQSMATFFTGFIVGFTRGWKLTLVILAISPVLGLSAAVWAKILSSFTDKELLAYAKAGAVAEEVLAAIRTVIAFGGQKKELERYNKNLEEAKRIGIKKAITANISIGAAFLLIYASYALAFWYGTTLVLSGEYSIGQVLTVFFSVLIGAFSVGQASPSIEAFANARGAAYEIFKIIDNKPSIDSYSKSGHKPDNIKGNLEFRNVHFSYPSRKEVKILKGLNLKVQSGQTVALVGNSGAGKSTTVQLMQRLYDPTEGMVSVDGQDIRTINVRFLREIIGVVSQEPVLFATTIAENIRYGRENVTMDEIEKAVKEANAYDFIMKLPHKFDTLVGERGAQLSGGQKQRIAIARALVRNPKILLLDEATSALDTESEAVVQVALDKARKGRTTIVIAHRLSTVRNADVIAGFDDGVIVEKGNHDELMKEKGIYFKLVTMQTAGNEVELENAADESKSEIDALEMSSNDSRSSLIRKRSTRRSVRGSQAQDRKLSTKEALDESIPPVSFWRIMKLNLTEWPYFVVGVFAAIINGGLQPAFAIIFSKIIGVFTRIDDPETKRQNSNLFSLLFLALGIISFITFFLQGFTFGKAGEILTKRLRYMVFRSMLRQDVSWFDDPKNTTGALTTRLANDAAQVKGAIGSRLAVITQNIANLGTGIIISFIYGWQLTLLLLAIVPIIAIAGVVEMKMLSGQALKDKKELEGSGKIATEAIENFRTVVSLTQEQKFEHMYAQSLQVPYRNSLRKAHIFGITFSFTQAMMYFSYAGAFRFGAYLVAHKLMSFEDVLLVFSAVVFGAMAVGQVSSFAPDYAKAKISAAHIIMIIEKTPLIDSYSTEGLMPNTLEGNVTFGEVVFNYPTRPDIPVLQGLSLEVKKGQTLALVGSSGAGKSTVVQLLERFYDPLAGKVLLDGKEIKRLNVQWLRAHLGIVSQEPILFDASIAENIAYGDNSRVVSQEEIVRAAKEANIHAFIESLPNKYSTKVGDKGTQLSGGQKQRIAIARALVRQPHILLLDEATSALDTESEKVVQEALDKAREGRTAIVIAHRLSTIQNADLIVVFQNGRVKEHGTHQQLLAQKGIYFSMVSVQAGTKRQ
Assay: Inhibition of IAAP photo-labeling of Pgp in crude membranes
pIC50: −log10 of the molar value.
test readout: pIC50

* CC(C)[C@@H]1NC(=O)[C@H](C)OC(=O)[C@@H](C(C)C)NC(=O)[C@@H](C(C)C)OC(=O)[C@H](C(C)C)NC(=O)[C@H](C)OC(=O)[C@@H](C(C)C)NC(=O)[C@@H](C(C)C)OC(=O)[C@H](C(C)C)NC(=O)[C@H](C)OC(=O)[C@@H](C(C)C)NC(=O)[C@@H](C(C)C)OC1=O | 6.22
* CC(C)[C@@H]1NC(=O)c2csc(n2)[C@H](C(C)C)NC(=O)c2csc(n2)[C@H](C(C)C)NC(=O)c2csc1n2 | 5.22
* COc1cc2c(cc1OC)CN(CCc1ccc(NC(=O)c3cc(OC)c(OC)cc3NC(=O)c3cnc4ccccc4c3)cc1)CC2 | 6.85

====

Target: V982C mutant Pgp (human MDR1) (Homo sapiens, UniProt P08183, C1074A/C1125A/C1227A/C137A/C431A/C717A/C956A/V982C)
Sequence (P08183 whole entry C137A/C431A/C717A/C956A/V982C/C1074A/C1125A/C1227A): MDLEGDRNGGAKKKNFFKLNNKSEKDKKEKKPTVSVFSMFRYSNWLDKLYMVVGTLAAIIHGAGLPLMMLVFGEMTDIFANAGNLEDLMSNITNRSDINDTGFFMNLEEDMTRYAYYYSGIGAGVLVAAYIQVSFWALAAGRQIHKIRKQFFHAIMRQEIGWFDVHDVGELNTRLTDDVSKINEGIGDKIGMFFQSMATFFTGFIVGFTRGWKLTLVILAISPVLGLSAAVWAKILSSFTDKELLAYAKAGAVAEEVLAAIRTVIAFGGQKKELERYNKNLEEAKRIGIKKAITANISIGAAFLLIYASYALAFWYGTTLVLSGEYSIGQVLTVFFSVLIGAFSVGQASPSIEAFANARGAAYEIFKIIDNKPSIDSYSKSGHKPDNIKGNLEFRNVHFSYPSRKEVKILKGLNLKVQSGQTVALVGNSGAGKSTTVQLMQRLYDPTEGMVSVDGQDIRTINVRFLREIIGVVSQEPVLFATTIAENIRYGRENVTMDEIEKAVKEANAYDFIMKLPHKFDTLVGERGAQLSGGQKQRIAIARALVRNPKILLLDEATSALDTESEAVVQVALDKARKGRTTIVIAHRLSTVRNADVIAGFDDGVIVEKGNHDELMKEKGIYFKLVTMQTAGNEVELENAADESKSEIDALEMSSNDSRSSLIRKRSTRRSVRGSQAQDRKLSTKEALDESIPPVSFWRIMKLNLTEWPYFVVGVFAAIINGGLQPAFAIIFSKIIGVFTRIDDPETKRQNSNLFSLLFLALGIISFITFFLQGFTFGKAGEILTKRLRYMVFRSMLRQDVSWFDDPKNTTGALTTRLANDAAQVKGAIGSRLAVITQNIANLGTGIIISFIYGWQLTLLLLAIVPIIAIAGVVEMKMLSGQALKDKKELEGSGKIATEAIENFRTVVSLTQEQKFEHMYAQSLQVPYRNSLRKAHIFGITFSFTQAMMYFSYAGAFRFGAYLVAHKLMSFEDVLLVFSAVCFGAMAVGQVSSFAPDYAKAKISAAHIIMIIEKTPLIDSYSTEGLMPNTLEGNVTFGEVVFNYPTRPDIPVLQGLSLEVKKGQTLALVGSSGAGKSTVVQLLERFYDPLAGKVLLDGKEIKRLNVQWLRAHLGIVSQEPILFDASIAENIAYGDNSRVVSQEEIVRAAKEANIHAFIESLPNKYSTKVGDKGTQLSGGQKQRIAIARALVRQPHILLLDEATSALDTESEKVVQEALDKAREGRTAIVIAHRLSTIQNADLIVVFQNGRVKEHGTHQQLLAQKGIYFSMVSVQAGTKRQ
Test: in vitro
Details: human, pH 6.8
test readout: inhibition at 10 min (%)

• COc1cc2c(cc1OC)CN(CCc1ccc(NC(=O)c3cc(OC)c(OC)cc3NC(=O)c3cnc4ccccc4c3)cc1)CC2 [Tariquidar, tariquidar] = 64

====

Biological target: Q725C mutant Pgp (human MDR1) (Homo sapiens, UniProt P08183, C1074A/C1125A/C1227A/C137A/C431A/C717A/C956A/Q725C)
Assay: in vitro
Conditions: pH 6.8
test readout: inhibition at 10 min (%)

- COc1cc2c(cc1OC)CN(CCc1ccc(NC(=O)c3cc(OC)c(OC)cc3NC(=O)c3cnc4ccccc4c3)cc1)CC2: 37

====

Biological target: Y307C/Q725C/V982C mutant Pgp (human MDR1) (Homo sapiens, UniProt P08183, C1074A/C1125A/C1227A/C137A/C431A/C717A/C956A/Q725C/V982C/Y307C)
Assay: in vitro
Conditions: human, pH 6.8
Method: Then, samples were photocrosslinked with IAAP at 4°C as described in the Materials and Methods section. Mean values from at least three independent experiments are plotted and error bars depict SD. High-Five insect cells (Invitrogen, Carlsbad, CA) were infected with recombinant baculovirus carrying the human MDR1 cDNA cysless WT and various mutant Pgps, with a His6-tag at the C-terminus as described previously. Crude membranes were prepared as described previously […]
test readout: inhibition at 10 min (%)

- COc1cc2c(cc1OC)CN(CCc1ccc(NC(=O)c3cc(OC)c(OC)cc3NC(=O)c3cnc4ccccc4c3)cc1)CC2 [Tariquidar, tariquidar]: 23

====

Biological target: cysless WT Pgp (human MDR1) (Homo sapiens, UniProt P08183, C1074A/C1125A/C1227A/C137A/C431A/C717A/C956A)
Assay: in vitro
Conditions: human, pH 6.8
Documented inhibition at 10 min across a set of compounds
test readout: inhibition at 10 min (%)

* COc1cc2c(cc1OC)CN(CCc1ccc(NC(=O)c3cc(OC)c(OC)cc3NC(=O)c3cnc4ccccc4c3)cc1)CC2 | 97
* CC(C)[C@@H]1NC(=O)[C@H](C)OC(=O)[C@@H](C(C)C)NC(=O)[C@@H](C(C)C)OC(=O)[C@H](C(C)C)NC(=O)[C@H](C)OC(=O)[C@@H](C(C)C)NC(=O)[C@@H](C(C)C)OC(=O)[C@H](C(C)C)NC(=O)[C@H](C)OC(=O)[C@@H](C(C)C)NC(=O)[C@@H](C(C)C)OC1=O | 82

====

Molecular target: Q725C/V982C mutant Pgp (human MDR1) (Homo sapiens, UniProt P08183, C1074A/C1125A/C1227A/C137A/C431A/C717A/C956A/Q725C/V982C)
Experiment: in vitro
Conditions: pH 6.8
test readout: inhibition at 10 min (%)

* COc1cc2c(cc1OC)CN(CCc1ccc(NC(=O)c3cc(OC)c(OC)cc3NC(=O)c3cnc4ccccc4c3)cc1)CC2 | 22

====

Molecular target: F728C mutant Pgp (human MDR1) (Homo sapiens, UniProt P08183, C1074A/C1125A/C1227A/C137A/C431A/C717A/C956A/F728C)
Sequence (P08183 whole entry C137A/C431A/C717A/F728C/C956A/C1074A/C1125A/C1227A): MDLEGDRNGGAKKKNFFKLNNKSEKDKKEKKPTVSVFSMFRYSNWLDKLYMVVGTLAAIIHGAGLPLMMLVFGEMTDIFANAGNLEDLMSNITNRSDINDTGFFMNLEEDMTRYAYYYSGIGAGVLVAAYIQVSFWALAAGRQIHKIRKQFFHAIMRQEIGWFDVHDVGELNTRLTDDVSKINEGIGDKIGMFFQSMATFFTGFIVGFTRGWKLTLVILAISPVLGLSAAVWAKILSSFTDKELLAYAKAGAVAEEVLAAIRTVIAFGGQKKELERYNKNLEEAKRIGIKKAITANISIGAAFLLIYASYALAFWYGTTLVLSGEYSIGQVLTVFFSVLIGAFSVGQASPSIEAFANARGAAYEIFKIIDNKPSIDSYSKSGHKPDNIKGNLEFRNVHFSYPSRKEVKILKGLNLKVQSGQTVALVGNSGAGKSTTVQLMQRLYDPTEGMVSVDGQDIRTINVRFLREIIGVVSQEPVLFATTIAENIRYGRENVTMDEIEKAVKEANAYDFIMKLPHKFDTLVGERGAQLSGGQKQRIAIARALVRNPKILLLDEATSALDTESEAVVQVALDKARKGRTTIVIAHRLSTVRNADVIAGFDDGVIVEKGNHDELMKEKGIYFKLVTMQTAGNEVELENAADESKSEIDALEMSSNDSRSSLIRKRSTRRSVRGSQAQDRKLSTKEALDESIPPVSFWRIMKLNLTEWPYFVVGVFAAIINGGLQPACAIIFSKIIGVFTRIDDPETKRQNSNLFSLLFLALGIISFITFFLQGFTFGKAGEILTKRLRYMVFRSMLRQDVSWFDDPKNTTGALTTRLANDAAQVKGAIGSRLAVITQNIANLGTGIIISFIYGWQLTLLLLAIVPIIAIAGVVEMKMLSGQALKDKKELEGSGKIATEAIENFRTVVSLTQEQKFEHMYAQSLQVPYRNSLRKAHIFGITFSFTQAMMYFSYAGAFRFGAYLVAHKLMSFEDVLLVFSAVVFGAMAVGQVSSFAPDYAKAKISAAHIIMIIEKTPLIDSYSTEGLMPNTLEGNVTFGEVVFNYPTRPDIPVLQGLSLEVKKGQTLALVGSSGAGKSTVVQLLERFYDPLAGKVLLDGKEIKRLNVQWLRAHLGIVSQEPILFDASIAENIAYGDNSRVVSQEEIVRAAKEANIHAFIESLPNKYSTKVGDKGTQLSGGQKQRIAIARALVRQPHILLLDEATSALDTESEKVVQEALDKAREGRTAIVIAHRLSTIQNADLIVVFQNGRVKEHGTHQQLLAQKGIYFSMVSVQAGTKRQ
Assay: in vitro
Conditions: pH 6.8
test readout: inhibition at 10 min

* COc1cc2c(cc1OC)CN(CCc1ccc(NC(=O)c3cc(OC)c(OC)cc3NC(=O)c3cnc4ccccc4c3)cc1)CC2 [Tariquidar, tariquidar] | 40%

====

Biological target: cysless WT Pgp (Homo sapiens, UniProt P08183, C1074A/C1125A/C1227A/C137A/C431A/C717A/C956A)
Assay: Inhibition of IAAP photo-labeling of Pgp in crude membranes
Details: read-out: IC50 (µM), inhibition of IAAP-labeling; Cysless WT; High-Five crude membranes
test readout: IC50 (µM)

* Nc1ncnc2c1ncn2[C@@H]1O[C@H](COC(=O)c2ccc(S(=O)(=O)F)cc2)[C@@H](O)[C@H]1O [FSBA, 5′-fluorosulfonylbenzoyl 5′-adenosine] | 390

====

Target: F978C mutant Pgp (Homo sapiens, UniProt P08183, C1074A/C1125A/C1227A/C137A/C431A/C717A/C956A/F978C)
Assay: biochemical
test readout: IC50 (µM)

* COc1cc2c(cc1OC)CN(CCc1ccc(NC(=O)c3cc(OC)c(OC)cc3NC(=O)c3cnc4ccccc4c3)cc1)CC2 [Tariquidar, tariquidar] | 3.6

All values here come from paper PMC3857843.
